Cited source for all entries: PubChem BioAssay (NCI)

Tested on: NCI-H460 lung
Test: NCI-60 one-dose screen, 48 h (100 = growth as untreated, 0 = no growth, -100 = all killed)
Details: 10 µM unless noted
This is part of a sample that, as a whole, favours compounds with a hit. Of some 83,000 tested, about 20% had one in any assay.
For each of the molecules below, state its growth.
Numbers only, in %.

molecule | recorded_measurement
COC(=O)C(=[N+]=[N-])C(=O)OC | 106

The following molecules each have a reported value; give each one's growth.
1. C[C@]12CC[C@@H]3c4ccc(OC(=O)Cc5ccc(N(CCCl)CCCl)cc5)cc4CC[C@H]3[C@@H]1CC[C@@H]2OC(=O)Cc1ccc(N(CCCl)CCCl)cc1
2. CC12CCC3C(CC=C4CC(O)CCC43C)C1C/C(=C\N1CCOCC1)C2=O (stereo not given)

[125, 108]

The following molecules each have a reported value; give each one's growth.
1. O=C(NCc1ccc([N+](=O)[O-])cc1)Nc1ccc(S(=O)(=O)F)cc1
2. CNC(=O)Oc1cccc(OC)c1
3. CCC(CC)(c1ccccc1)C(OC(N)=O)c1ccccc1 (stereo not given)

1. 95.8
2. 115
3. 90.1

The following molecules each have a reported value; give each one's growth.
1. CCOC(=O)c1cnc(SCc2ccc(Cl)c(Cl)c2)nc1N1CC1
2. N#Cc1ncc(/N=C/c2ccc(N(CCCl)CCCl)cc2)s1
3. O=C(Nc1ccc(S(=O)(=O)F)cc1)Oc1ccccc1
4. NC(Cc1ccc2c(c1)OCO2)c1ccc2c(c1)OCO2 (stereo not given)
5. [Cl][Hg][n]1cnc2c(Cl)c(Cl)c(Cl)cc21
6. COP(=S)(OC)Oc1ccc(SC)c(C)c1

1. 41
2. 22.7
3. 102
4. 104
5. 98.1
6. 110

The following molecules each have a reported value; give each one's growth.
1. CC(=O)O[C@H]1CCC2C3CCC4=C/C(=N/O)CCC4(C)C3CCC21C (stereo not given in full)
2. CC(=O)O[C@H]1CC[C@H]2[C@@H]3CC[C@H]4CC=C(C)C[C@]4(C)[C@H]3CC[C@]12C
3. Cc1cc(N(CCCl)CCCl)ccc1C=Nc1ccc2ccccc2c1
4. Nc1nc(N)c(-c2ccc(Cl)c(Cl)c2)c(/C=C/c2ccc(S(=O)(=O)F)cc2)n1
5. CC(=O)[O][Hg][c]1ccccc1

[89.6, 113, 26, 77, -52.1]
